# PROCEDURE DETAILS: Selectivity ratio of CC50 for mouse J774A1 cells to IC50 for promastigote stage of Leishmania amazonensis WHOM/BR/75/JOSEFA
# Type: ADME, cell-based, J774.A1
# CONDITION NOTES: read-out: Ratio CC50/IC50
REPORTED ENDPOINT: selectivity ratio

Dear reader, for each entry below, please note its selectivity ratio.
1. COc1ccc2nc(NCCO)c(SC)nc2c1
2. COc1ccc2nc(Cl)c([S+](C)[O-])nc2c1 (configuration not stated)
3. COc1ccc2nc(NCC(C)C)c(S(C)(=O)=O)nc2c1
4. COc1ccc2nc(NC3CCCCC3)c(S(C)(=O)=O)nc2c1
5. CCCCNc1nc2ccccc2nc1S(C)(=O)=O
6. COc1ccc2nc(S(C)(=O)=O)c(NCCO)nc2c1
7. CCCCNc1nc2ccc(OC)cc2nc1S(C)(=O)=O

[5, 27.8, 22.8, 18.1, 11.4, 3.7, 17.1]

Parameters: items (list). Returns: selectivity ratio for each item.
1. COc1ccc2nc(S(C)(=O)=O)c(Cl)nc2c1
2. c1ccc(-c2nc3ccccc3nc2-c2ccc(OCCN3CCCCC3)cc2)cc1
3. CS/C(=C/[N+](=O)[O-])Nc1ccc(Cl)cc1
4. COc1ccc2nc(N(C)C)c(S(C)(=O)=O)nc2c1
5. CSc1nc2ccc(Br)cc2nc1Cl

1: 7.6; 2: 29.6; 3: 6.9; 4: 4.5; 5: 7.4
